The measured values listed here are drawn from ChEMBL document CHEMBL1909046.

study_target: UniProt:P07550
Sequence (P07550 whole entry): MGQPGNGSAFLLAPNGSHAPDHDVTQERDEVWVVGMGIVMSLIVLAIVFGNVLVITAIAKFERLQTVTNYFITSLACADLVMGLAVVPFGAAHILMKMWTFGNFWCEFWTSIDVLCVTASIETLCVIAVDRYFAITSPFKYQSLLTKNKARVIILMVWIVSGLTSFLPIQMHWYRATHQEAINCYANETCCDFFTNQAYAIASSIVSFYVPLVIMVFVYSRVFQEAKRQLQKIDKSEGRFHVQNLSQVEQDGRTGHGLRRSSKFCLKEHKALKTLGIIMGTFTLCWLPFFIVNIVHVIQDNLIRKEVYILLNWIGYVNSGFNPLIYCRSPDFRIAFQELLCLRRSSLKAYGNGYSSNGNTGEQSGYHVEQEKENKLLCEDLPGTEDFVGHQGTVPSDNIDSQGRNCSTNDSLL
method_description: DRUGMATRIX: Adrenergic beta2 radioligand binding (ligand: [3H] CGP-12177)
Assay type: cell membranes, CHO, Membrane
particulars: cho; Not Active = under 50% inhibition at 10 µM

>  <molecule>
CN1CCCC(CN2c3ccccc3Sc3ccccc32)C1 (centres undefined) [MEPAZINE]

>  <IC50>
Not Active

$$$$
>  <molecule>
CC[C@H]1[C@@H]2C[C@H]3[C@@H]4N(C)c5ccccc5[C@]45C[C@@H]([C@@H]2[C@H]5O)N3[C@@H]1O [AJMALINE]

>  <IC50>
Not Active

$$$$
>  <molecule>
C[C@]12C=CC(=O)C=C1CC[C@H]1[C@@H]3C[C@@H](O)[C@](O)(C(=O)CO)[C@@]3(C)C[C@H](O)[C@@]12F [TRIAMCINOLONE]

>  <IC50>
Not Active

$$$$
>  <molecule>
C[C@]12CC[C@@H]3c4ccc(O)cc4CC[C@H]3[C@@H]1C[C@@H](O)[C@@H]2O [ESTRIOL]

>  <IC50>
Not Active

$$$$
>  <molecule>
CN1[C@@H]2CC[C@H]1C[C@@H](OC(c1ccccc1)c1ccccc1)C2 [BENZTROPINE]

>  <IC50>
Not Active

$$$$
>  <molecule>
O=C(O)CCNC(=O)c1ccc(/N=N/c2ccc(O)c(C(=O)O)c2)cc1 [BALSALAZIDE]

>  <IC50>
Not Active

$$$$
>  <molecule>
NCCCNCCSP(=O)(O)O [AMIFOSTINE]

>  <IC50>
Not Active

$$$$
>  <molecule>
COc1ccccc1N

>  <IC50>
Not Active

$$$$
>  <molecule>
CCc1ccc(CCOc2ccc(CC3SC(=O)NC3=O)cc2)nc1 (centres undefined) [PIOGLITAZONE]

>  <IC50>
Not Active

$$$$
>  <molecule>
CN(C)C(=O)Oc1cccc([N+](C)(C)C)c1.[Br-] [NEOSTIGMINE BROMIDE]

>  <IC50>
Not Active

$$$$
>  <molecule>
CCCCC(=O)N(Cc1ccc(-c2ccccc2-c2nnn[nH]2)cc1)[C@H](C(=O)O)C(C)C

>  <IC50>
Not Active

$$$$
>  <molecule>
CN1CCN(C2=Nc3cc(Cl)ccc3Nc3ccccc32)CC1 [CLOZAPINE]

>  <IC50>
Not Active

$$$$
>  <molecule>
CN(C)C(=N)NC(=N)N [METFORMIN]

>  <IC50>
Not Active

$$$$
>  <molecule>
CCn1cc(C(=O)O)c(=O)c2cc(F)c(N3CCNC(C)C3)c(F)c21 (centres undefined) [LOMEFLOXACIN]

>  <IC50>
Not Active

$$$$
>  <molecule>
C[C@@](Cc1ccc(O)c(O)c1)(NN)C(=O)O.O [CARBIDOPA]

>  <IC50>
Not Active

$$$$
>  <molecule>
O=C(O)c1ccccc1O [SALICYLIC ACID]

>  <IC50>
Not Active

$$$$
>  <molecule>
Cc1ccc(C(=O)c2ccc(CC(=O)O)n2C)cc1 [TOLMETIN]

>  <IC50>
Not Active

$$$$
>  <molecule>
C[C@H]1O[C@H](O[C@H]2[C@H](O)[C@@H](O)[C@@H](O[C@H]3[C@H](O)[C@@H](O)C(O)O[C@@H]3CO)O[C@@H]2CO)[C@H](O)[C@@H](O)[C@@H]1N[C@H]1C=C(CO)[C@@H](O)[C@H](O)[C@H]1O (some centres undefined) [ACARBOSE]

>  <IC50>
Not Active

$$$$
>  <molecule>
O=C(O)c1cc(-c2ccc(F)cc2F)ccc1O [DIFLUNISAL]

>  <IC50>
Not Active

$$$$
>  <molecule>
CO/N=C(\C(=O)N[C@@H]1C(=O)N2C(C(=O)O)=C(COC(C)=O)CS[C@H]12)c1csc(N)n1 [CEFOTAXIME]

>  <IC50>
Not Active

$$$$
>  <molecule>
O=c1c(-c2ccc(O)cc2)coc2cc(O)cc(O)c12 [GENISTEIN]

>  <IC50>
Not Active

$$$$
>  <molecule>
CNC1=Nc2ccc(Cl)cc2C(c2ccccc2)=[N+]([O-])C1 [CHLORDIAZEPOXIDE]

>  <IC50>
Not Active

$$$$
>  <molecule>
CC(C)(C)NCC(O)COc1cccc2c1CC(O)C(O)C2 (centres undefined) [NADOLOL]

>  <IC50>
Not Active

$$$$
>  <molecule>
COc1ccc2c(c1OC)C(=O)O[C@@H]2[C@H]1c2c(cc3c(c2OC)OCO3)CCN1C [NOSCAPINE]

>  <IC50>
Not Active

$$$$
>  <molecule>
NC(=O)N1c2ccccc2CC(=O)c2ccccc21 [OXCARBAZEPINE]

>  <IC50>
Not Active

$$$$
>  <molecule>
CC(C)C[C@H]1C(=O)N2CCC[C@H]2[C@]2(O)O[C@](NC(=O)[C@@H]3C=C4c5cccc6[nH]cc(c56)C[C@H]4N(C)C3)(C(C)C)C(=O)N12 [ERGOCRYPTINE]

>  <IC50>
Not Active

$$$$
>  <molecule>
CN1CCN(c2c(F)cc3c(=O)c(C(=O)O)cn(CCF)c3c2F)CC1 [FLEROXACIN]

>  <IC50>
Not Active

$$$$
>  <molecule>
COc1cc(OC)c(C(=O)CCCN2CCCC2)c(OC)c1 [BUFLOMEDIL]

>  <IC50>
Not Active

$$$$
>  <molecule>
CCCCC1=NC2(CCCC2)C(=O)N1Cc1ccc(-c2ccccc2-c2nnn[nH]2)cc1 [IRBESARTAN]

>  <IC50>
Not Active

$$$$
>  <molecule>
C[C@H]1[C@H](NC(=O)/C(=N\OC(C)(C)C(=O)O)c2csc(N)n2)C(=O)N1S(=O)(=O)O [AZTREONAM]

>  <IC50>
Not Active

$$$$
>  <molecule>
CCN(CC)CCNC(=O)c1ccc(N)cc1 [PROCAINAMIDE]

>  <IC50>
Not Active

$$$$
>  <molecule>
O=C(O)COc1ccc(C(=O)c2cccs2)c(Cl)c1Cl

>  <IC50>
Not Active

$$$$
>  <molecule>
Oc1ccc2c3c1O[C@H]1[C@@H](O)CC[C@@]4(O)[C@@H](C2)N(CC2CCC2)CC[C@]314 [NALBUPHINE]

>  <IC50>
Not Active

$$$$
>  <molecule>
NC(=O)c1cccc(N)c1 [3-AMINOBENZAMIDE]

>  <IC50>
Not Active

$$$$
